# System: Hepatotoxicity
# procedure.details: FDA HLAED, serum glutamic pyruvic transaminase (SGPT) increase
# test.context: human
result.type: SGPT Increase - Number of Reports

                                   compound   tested_system                        result_type  reported
0  CCOC(=O)N1CCC(=C2c3ccc(Cl)cc3CCc3cccnc32)CC1  Hepatotoxicity  SGPT Increase - Number of Reports      >= 4
1  COC(=O)C1=C(C)NC(C)=C(C(=O)OCCN(C)Cc2ccccc2)C1c1cccc([N+](=O)[O-])c1 (centres undefined)  Hepatotoxicity  SGPT Increase - Number of Reports      >= 4
2                              NNCCc1ccccc1  Hepatotoxicity  SGPT Increase - Number of Reports      >= 4
3                                NCCNCCNCCN  Hepatotoxicity  SGPT Increase - Number of Reports       < 4
4  Oc1ccc2c3c1O[C@H]1[C@@H](O)CC[C@@]4(O)[C@@H](C2)N(CC2CCC2)CC[C@]314  Hepatotoxicity  SGPT Increase - Number of Reports       < 4
5  CCOC(=O)/C=C(C)/C=C/C=C(C)/C=C/c1c(C)cc(OC)c(C)c1C [ETRETINATE]  Hepatotoxicity  SGPT Increase - Number of Reports      >= 4
6  COC(=O)C1=C(C)NC(C)=C(C(=O)OC)C1c1ccccc1[N+](=O)[O-]  Hepatotoxicity  SGPT Increase - Number of Reports      >= 4
7   NC(=O)OCC(COC(N)=O)c1ccccc1 [FELBAMATE]  Hepatotoxicity  SGPT Increase - Number of Reports      >= 4
8  C=C1CC[C@@]2(O)[C@H]3Cc4ccc(O)c5c4[C@@]2(CCN3CC2CC2)[C@H]1O5  Hepatotoxicity  SGPT Increase - Number of Reports       < 4

---

# Tested on: Hepatotoxicity
# procedure.details: FDA HLAED, serum glutamic oxaloacetic transaminase (SGOT) increase
# test.context: human
# SGOT Increase - Index Value per entry

compound	SGOT Increase - Index Value
CC[C@H]1OC(=O)[C@H](C)[C@@H](O[C@H]2C[C@@](C)(OC)[C@@H](O)[C@H](C)O2)[C@H](C)[C@@H](O[C@@H]2O[C@H](C)C[C@H](N(C)C)[C@H]2O)[C@](C)(O)C[C@@H](C)[C@@H]2N[C@@H](COCCOC)O[C@H]([C@H]2C)[C@]1(C)O	5.4
N#Cc1cc(NC(=O)C(=O)O)c(Cl)c(NC(=O)C(=O)O)c1 [LODOXAMIDE]	0
COc1ccccc1OCCNCC(O)COc1cccc2[nH]c3ccccc3c12 (stereo not drawn)	0
Nc1c2c(nc3ccccc13)CCCC2	58.1
Nc1nc(Cl)nc2c1ncn2[C@H]1C[C@H](O)[C@@H](CO)O1	16.2
CC1(C)S[C@@H]2[C@H](NC(=O)[C@H](N)c3ccc(O)cc3)C(=O)N2[C@H]1C(=O)O	0.1
Nc1ccn([C@@H]2CS[C@H](CO)O2)c(=O)n1	8.7
Oc1ncnc2[nH]ncc12	15

---

# Composite Activity - Active per entry
# Test system: Hepatotoxicity
# procedure.details: FDA HLAED, liver enzyme composite activity
# test.context: human
result.type: Composite Activity - Active

                                   compound  reported
0  Cc1nnc(SCC2=C(C(=O)O)N3C(=O)[C@@H](NC(=O)Cn4cnnn4)[C@H]3SC2)s1 [CEFAZOLIN]         0
1  CN(C)c1ccc(O)c2c1C[C@H]1C[C@H]3[C@H](N(C)C)C(O)=C(C(N)=O)C(=O)[C@@]3(O)C(O)=C1C2=O [MINOCYCLINE]         0
2  CN1CCN(C2=Nc3cc(Cl)ccc3Nc3ccccc32)CC1 [CLOZAPINE]         5
3  CN1[C@@H]2CC[C@H]1C[C@@H](OC(c1ccccc1)c1ccccc1)C2 [BENZTROPINE]         0
4  CC(=O)[C@]1(O)Cc2c(O)c3c(c(O)c2[C@@H](O[C@H]2C[C@H](N)[C@H](O)[C@H](C)O2)C1)C(=O)c1ccccc1C3=O [IDARUBICIN]         0
5  COc1c(C)c2c(c(O)c1C/C=C(\C)CCC(=O)O)C(=O)OC2 [MYCOPHENOLIC ACID]         1
6  COc1cc(C(=O)NS(=O)(=O)c2ccccc2C)ccc1Cc1cn(C)c2ccc(NC(=O)OC3CCCC3)cc12 [ZAFIRLUKAST]         2
7  NC(=O)N1c2ccccc2C=Cc2ccccc21 [CARBAMAZEPINE]         1

---

# Tested on: Hepatotoxicity
# procedure.details: FDA HLAED, liver enzyme composite activity
# test.context: human
# Composite Activity - Active per entry
result.type: Composite Activity - Active

compound	tested.system	reported
CCCc1c2oc(C(=O)O)cc(=O)c2cc2c(=O)cc(C(=O)O)n(CC)c12	Hepatotoxicity	0
C[C@@H]1CN([C@H]2CC[C@](C#N)(c3ccc(F)cc3)CC2)CC[C@]1(C(=O)O)c1ccccc1	Hepatotoxicity	0
CCCCC(=O)N(Cc1ccc(-c2ccccc2-c2nnn[nH]2)cc1)[C@H](C(=O)O)C(C)C	Hepatotoxicity	0
CNNCc1ccc(C(=O)NC(C)C)cc1	Hepatotoxicity	0
CN1CCN2c3ncccc3Cc3ccccc3C2C1 (configuration not stated)	Hepatotoxicity	1
C[C@H]1O[C@H](O[C@H]2[C@H](O)[C@@H](O)[C@@H](O[C@H]3[C@H](O)[C@@H](O)C(O)O[C@@H]3CO)O[C@@H]2CO)[C@H](O)[C@@H](O)[C@@H]1N[C@H]1C=C(CO)[C@@H](O)[C@H](O)[C@H]1O (some centres not stated)	Hepatotoxicity	3
CN(C)[C@@H]1C(O)=C(C(N)=O)C(=O)[C@@]2(O)C(O)=C3C(=O)c4c(O)cccc4[C@@](C)(O)[C@H]3C[C@@H]12	Hepatotoxicity	0

---

# Tested on: Hepatotoxicity
# procedure.details: FDA HLAED, serum glutamic pyruvic transaminase (SGPT) increase
# test.context: human
# SGPT Increase - Index Value per entry
result.type: SGPT Increase - Index Value

molecule	reported
C#C[C@]1(O)CC[C@H]2[C@@H]3CCC4=Cc5oncc5C[C@]4(C)[C@H]3CC[C@@]21C [DANAZOL]	10.2
O=C(NCC(O)CO)c1c(I)c(C(=O)NCC(O)CO)c(I)c(N(CCO)C(=O)CO)c1I (stereo not given) [IOVERSOL]	0
COc1cc(CC2c3c(cc(OC)c(OC)c3OC)CC[N+]2(C)CCCOC(=O)CCC(=O)OCCC[N+]2(C)CCc3cc(OC)c(OC)c(OC)c3C2Cc2cc(OC)c(OC)c(OC)c2)cc(OC)c1OC.[Cl-].[Cl-] (stereo not given) [DOXACURIUM CHLORIDE]	0
C[C@H]1O[C@H](O[C@H]2[C@H](O)[C@@H](O)[C@@H](O[C@H]3[C@H](O)[C@@H](O)C(O)O[C@@H]3CO)O[C@@H]2CO)[C@H](O)[C@@H](O)[C@@H]1N[C@H]1C=C(CO)[C@@H](O)[C@H](O)[C@H]1O (stereo not given in full) [ACARBOSE]	5.2
O=C(NCC1CCCCN1)c1cc(OCC(F)(F)F)ccc1OCC(F)(F)F (stereo not given) [FLECAINIDE]	8.3
CN(Cc1cnc2nc(N)nc(N)c2n1)c1ccc(C(=O)N[C@@H](CCC(=O)O)C(=O)O)cc1 [METHOTREXATE]	6.4
Cc1ncc2n1-c1ccc(Cl)cc1C(c1ccccc1F)=NC2 [MIDAZOLAM]	0.2
CCCCC[C@H](O)/C=C/[C@@H]1[C@H]2C/C(=C/CCCC(=O)O)O[C@H]2C[C@H]1O [EPOPROSTENOL]	0
CCC(=O)OCC(=O)[C@@]1(OC(=O)CC)[C@H](C)C[C@H]2[C@H]3[C@H]([C@@H](O)C[C@@]21C)[C@@]1(C)C=CC(=O)C=C1C[C@H]3Cl [ALCLOMETASONE DIPROPIONATE]	0
C[C@@H]1O[C@@H]1P(=O)(O)O [FOSFOMYCIN]	0
O=C1CC[C@@]2(O)[C@H]3Cc4ccc(O)c5c4[C@@]2(CCN3CC2CC2)[C@H]1O5 [NALTREXONE]	23.3
CC(C(=O)O)c1ccc(C(=O)c2cccs2)cc1 (stereo not given) [SUPROFEN]	0
CCOC(=O)c1ncn2c1CN(C)C(=O)c1cc(F)ccc1-2 [FLUMAZENIL]	2.5
CC1=C(/C=C/C(C)=C/C=C/C(C)=C/C(=O)O)C(C)(C)CCC1 [TRETINOIN]	0
CN1C2CCCC1CC(NC(=O)c1nn(C)c3ccccc13)C2 (stereo not given) [GRANISETRON]	0.6

Cited source: ChEMBL document CHEMBL1697781
